Experiment: NCI Yeast Anticancer Drug Screen. Data for the mlh1 rad18 strain (AID 175)
Conditions: S. cerevisiae mlh1 rad18 strain growth inhibition; at 50.0 µM
About 79,000 compounds went through this panel and 15% of them were active in at least one assay; those are over-represented in the sample as a whole. Activity calls are given as the source filed them. Rule as the data show it: active = growth inhibition above about 70%; inactive = the rest.
Outcome codes: true for active, false for inactive

[
  {
    "COMPOUND": "O=C1CC2(CCCC2)C(=O)N1c1ccc(N2C(=O)CC3(CCCC3)C2=O)cc1",
    "LABEL CLASS": "false"
  },
  {
    "COMPOUND": "CCc1c(C(=O)OC)c(C(=O)OC)c(-c2ccccc2)n1CCn1c(CC)c(C(=O)OC)c(C(=O)OC)c1-c1ccccc1",
    "LABEL CLASS": "false"
  },
  {
    "COMPOUND": "ICCCCCCCCCC[n+]1ccc2ccccc2c1",
    "LABEL CLASS": "true"
  },
  {
    "COMPOUND": "CC(=O)Nc1ccc(C#N)c2ccccc12",
    "LABEL CLASS": "false"
  },
  {
    "COMPOUND": "CC(C)=CN(C)C (tested in a mixture with another compound)",
    "LABEL CLASS": "true"
  },
  {
    "COMPOUND": "COC(=O)[C@@]12OC[C@]34[C@H]([C@@H](O)[C@@H]1O)[C@@]1(C)CC(=O)C(O)=C(C)[C@@H]1C[C@H]3OC(=O)[C@H](OC(=O)C(Cc1ccccc1)NC(=O)OC(C)(C)C)[C@@H]24 (stereo not given in full)",
    "LABEL CLASS": "false"
  },
  {
    "COMPOUND": "COc1ccc2c(c1)C1(C)CCCC(C)(C(=O)O)C1C(Br)C2=O (stereo not given)",
    "LABEL CLASS": "true"
  },
  {
    "COMPOUND": "C(=C\\c1cnnc2ccccc12)/c1ccco1",
    "LABEL CLASS": "false"
  },
  {
    "COMPOUND": "CCCCc1c2c(nc3c1CCCC3O)/C(=C/c1ccccc1)CCC2 (stereo not given)",
    "LABEL CLASS": "true"
  },
  {
    "COMPOUND": "CN(C)c1ccc(/C=C/c2nc3ccccc3s2)cc1",
    "LABEL CLASS": "true"
  },
  {
    "COMPOUND": "CCN(CC)C(C)(C)C(=O)/C=C/c1ccc(Cl)cc1",
    "LABEL CLASS": "false"
  },
  {
    "COMPOUND": "CCOC(=O)C(=Cc1ccc(OC)cc1)C(=O)OCC",
    "LABEL CLASS": "false"
  },
  {
    "COMPOUND": "Cc1ccc(OS(=O)(=O)c2ccc(Br)cc2)cc1",
    "LABEL CLASS": "false"
  },
  {
    "COMPOUND": "CCCCCCCCCCCCCCCCCCOS(=O)(=O)O (tested in a mixture with another compound)",
    "LABEL CLASS": "false"
  },
  {
    "COMPOUND": "Cc1cc(O)c(/C=N/C(=S)Nc2ccc(S(N)(=O)=O)cc2)c(=O)o1",
    "LABEL CLASS": "false"
  },
  {
    "COMPOUND": "O=C1C=CC(=O)c2c1cc1ccccc1c2O",
    "LABEL CLASS": "false"
  },
  {
    "COMPOUND": "Cc1ccc(S(=O)(=O)Nc2ccc(C)cc2C)cc1",
    "LABEL CLASS": "true"
  },
  {
    "COMPOUND": "CCOC(=O)C(C)(C)Oc1ccc2c(=O)cc(-c3ccccc3)oc2c1",
    "LABEL CLASS": "true"
  },
  {
    "COMPOUND": "CC1=C2CCC3C(CCC4(C)C(C(C)CCCC(C)C)CCC34)C2(C)CCC1=O (stereo not given)",
    "LABEL CLASS": "false"
  },
  {
    "COMPOUND": "CCCOc1cc(C(=O)OCCN(CC)CC)cc(OCCC)c1OCCC",
    "LABEL CLASS": "false"
  },
  {
    "COMPOUND": "CC1=NC(c2ccccc2)(C2(c3ccccc3)C(c3ccccc3)=C2c2ccccc2)C(=O)O1 (stereo not given)",
    "LABEL CLASS": "true"
  },
  {
    "COMPOUND": "COc1ccc2c(C)c(N=C=S)c(=O)oc2c1",
    "LABEL CLASS": "true"
  },
  {
    "COMPOUND": "CC([C@H]1CCC2C3CCC4CC5(CC[C@]4(C)C3CC[C@@]21C)c1ccccc1C(=O)N5C)N(C)C (stereo not given in full)",
    "LABEL CLASS": "true"
  },
  {
    "COMPOUND": "CC12CCc3ccccc3C1=Nc1ccccc12 (stereo not given)",
    "LABEL CLASS": "false"
  },
  {
    "COMPOUND": "COc1ccc(NC(=S)N/N=C/c2cccc(C)n2)cc1",
    "LABEL CLASS": "true"
  },
  {
    "COMPOUND": "COc1ccccc1C1(c2ccccc2OC)OC(=O)c2ccccc21",
    "LABEL CLASS": "true"
  },
  {
    "COMPOUND": "CCCCCCCCCCCCCCCCP(=O)([O-])OCC[N+](C)(C)C",
    "LABEL CLASS": "true"
  },
  {
    "COMPOUND": "CC(=O)N1c2ccccc2Sc2ccc(C(=O)CCl)cc21",
    "LABEL CLASS": "true"
  },
  {
    "COMPOUND": "CC12CCCCC1CCC(Br)C2=O (stereo not given)",
    "LABEL CLASS": "false"
  },
  {
    "COMPOUND": "CN(C)Cc1ccc2c(c1)c1c(n2Cc2ccccc2)CCCC1",
    "LABEL CLASS": "true"
  },
  {
    "COMPOUND": "CN1CCN(CCCN)CC1",
    "LABEL CLASS": "false"
  },
  {
    "COMPOUND": "c1cc2c(cc1CCCCCCCCCCc1ccc3c(c1)CCC3)CCC2",
    "LABEL CLASS": "false"
  },
  {
    "COMPOUND": "OC(CN1CCCCC1)c1ccc2c(ccc3ccccc32)c1 (stereo not given)",
    "LABEL CLASS": "true"
  },
  {
    "COMPOUND": "Cc1ccc(S(=O)(=O)NCCSSCCNS(=O)(=O)c2ccc(C)cc2)cc1",
    "LABEL CLASS": "true"
  },
  {
    "COMPOUND": "Cc1ccc(O)c(C(c2cc(C)ccc2O)c2ccccc2Cl)c1",
    "LABEL CLASS": "true"
  },
  {
    "COMPOUND": "Cc1ccsc1/C=N/Nc1cc(C)c2cccc(C)c2n1",
    "LABEL CLASS": "false"
  },
  {
    "COMPOUND": "CN(C)CCN(C)N=Nc1c(-c2ccc(Cl)cc2)n[nH]c1C(F)(F)F",
    "LABEL CLASS": "true"
  },
  {
    "COMPOUND": "C[C@]12CCC(=O)C=C1CC[C@@H]1[C@@H]2[C@@H](O)C[C@@]2(C)[C@H]1CC[C@]2(O)C(=O)COC(=O)CCC1CCCC1",
    "LABEL CLASS": "true"
  },
  {
    "COMPOUND": "O=C1NN(C2=NNC3(C(=O)N2)c2ccccc2-c2ccccc23)C(c2ccccc2)=N/C1=C/c1ccc(Cl)cc1",
    "LABEL CLASS": "false"
  },
  {
    "COMPOUND": "S=C(NC(=S)Nc1ccccc1)Nc1ccccc1",
    "LABEL CLASS": "true"
  },
  {
    "COMPOUND": "CCCCCCCC(CC(=O)O)OC(=O)CC(CCCCCCC)OC1OC(C)C(O)C(O)C1OC1OC(C)C(O)C(O)C1O (stereo not given)",
    "LABEL CLASS": "true"
  },
  {
    "COMPOUND": "CC(CO)(CO)Cc1ccccc1",
    "LABEL CLASS": "true"
  },
  {
    "COMPOUND": "O=C(O)Cc1c(-c2noc(-c3ccccc3)c2CC(=O)O)noc1-c1ccccc1",
    "LABEL CLASS": "false"
  },
  {
    "COMPOUND": "COc1cc(C2c3cc4c(cc3[C@@H](OCCN)[C@H]3COC(=O)C23)OCO4)cc(OC)c1O (stereo not given in full)",
    "LABEL CLASS": "true"
  },
  {
    "COMPOUND": "Nc1ccc(-c2nc3ccccc3s2)cc1I",
    "LABEL CLASS": "true"
  }
]
